- Test system: Fibroblast
- Assay explanation: Multiplex assay against human fibroblast
- Format: toxicity, cell-based
- Condition description: 12 h, 10 µM, compound concentration 10 uM, replicate 2
Assay endpoint: Population Fragmented Nuclei (%)

Use the examples below as a reference point.
Molecule: Cc1[nH]c(/C=C2\C(=O)Nc3ccc(S(=O)(=O)N(C)c4cccc(Cl)c4)cc32)c(C)c1C(=O)N1CCN(C)CC1
Target of assay: Fibroblast
Assay endpoint: Population Fragmented Nuclei (%)
Assay value: 10%
//
Molecule: Cc1csc2c(N[C@@H](C)CN3CCN(S(=O)(=O)c4ccc(Cl)c(Cl)c4)CC3)ncnc12
Target of assay: Fibroblast
Assay endpoint: Population Fragmented Nuclei (%)
Assay value: 12%
//
Molecule: Cc1nc(-c2ccc(-c3ccc(C(=O)N4CCc5cc6c(cc54)C4(CCN(C)CC4)CO6)cc3)c(C)c2)no1 [SB-224289]
Target of assay: Fibroblast
Assay endpoint: Population Fragmented Nuclei (%)
Assay value: 7%
//
Molecule: Cn1cc(-c2[nH]c3cc(NC(=O)[C@H](N)C4CCCCC4)cc4c3c2C=NNC4=O)cn1
Target of assay: Fibroblast
Assay endpoint: Population Fragmented Nuclei (%)
Assay value: 37%

Now for the molecule whose Population Fragmented Nuclei (%) we want.
Give the value of Population Fragmented Nuclei (%) reported for the following: OC1(c2ccc(Cl)cc2)CCN(Cc2c[nH]c3ccccc23)CC1
13%

---

- System: Fibroblast
- Assay explanation: Multiplex assay against human fibroblast
- Assay type: toxicity, cell-based
- Condition description: 12 h, 1 µM, compound concentration 1 uM, replicate 2
Exercise: state measured Population Mitotic Cells (%) for each of the compounds provided.
Put down the number, then write its unit next to it.

Use the examples below as a reference point.
Compound: C[C@@]1(C(=O)Nc2ccc(F)nc2)CCCN1c1nc(Nc2cc(C3CC3)n[nH]2)c2cccn2n1
Population Mitotic Cells (%): 33%
//
Compound: CC[C@H](C)C(=O)O[C@H]1C[C@@H](C)C=C2C=C[C@H](C)[C@H](CC[C@@H]3C[C@@H](O)CC(=O)O3)[C@H]21
Population Mitotic Cells (%): 75%
//
Compound: CN1CCN(CCOc2cc(OC3CCOCC3)c3c(Nc4c(Cl)ccc5c4OCO5)ncnc3c2)CC1
Population Mitotic Cells (%): 30%
//
Compound: OC1(c2ccc(Cl)cc2)CCN(Cc2c[nH]c3ccccc23)CC1
Population Mitotic Cells (%): 100%
//
Compound: COc1cc(-n2cnc3cc(-c4ccc(Cl)cc4)sc3c2=O)ccc1OCCN1CCCC1
Population Mitotic Cells (%): 28%
//
Compound: CC(C)(O)CNc1ncc(-c2ccnc(Nc3ccnc(Cl)c3)n2)c(CC2CC2)n1
Population Mitotic Cells (%): 90%
//
Compound: C[C@@H](NCCCc1cccc(C(F)(F)F)c1)c1cccc2ccccc12.Cl [CINACALCET HYDROCHLORIDE]
Population Mitotic Cells (%): 66%
//
Compound: Cc1c(-c2ccc(O)cc2)n(Cc2ccc(OCCN3CCCCCC3)cc2)c2ccc(O)cc12
Population Mitotic Cells (%): 100%
//
Compound: Cc1nc(Nc2n[nH]c3c2CN(C(=O)N[C@H](CN(C)C)c2ccccc2)C3(C)C)c2sccc2n1
Population Mitotic Cells (%): 40%
//
Compound: CN(C)C(=O)/C(C#N)=C/c1ccc(-c2nc3cnc4[nH]ccc4c3n2C2CCCCC2)o1
Population Mitotic Cells (%): 42%

Each compound below has a recorded value; state its Population Mitotic Cells (%).
1. COc1ncc(-c2ccc3nccc(-c4ccnnc4)c3c2)cc1NS(=O)(=O)c1ccc(F)cc1F
2. C=CC(=O)Nc1ccc2ncnc(Nc3ccc(OCc4cccc(F)c4)c(Cl)c3)c2c1.Cc1ccc(S(=O)(=O)O)cc1
3. Cn1cc(-c2[nH]c3cc(NC(=O)[C@H](N)C4CCCCC4)cc4c3c2C=NNC4=O)cn1

["50%", "50%", "66%"]
